# Test system: MCF7
# EXPERIMENT DESCRIPTION: Cytotoxicity against human MCF7 after 3 days by SRB assay
# Type: functional, cell-based
# TEST SETTINGS: MCF7, 72 h
QUANTITY MEASURED: EC50
Answer with the figure and its unit, nothing else.

stdin: Provide MCF7 EC50 reading for CN[C@H]1CCc2cc(O)c(OC)c(OC)c2-c2ccc(OC)c(=O)cc21 .
stdout: 790 nM

stdin: Enter EC50 (test system MCF7) for COC1=C[C@@H]2C3=C([C@@H]2C1=O)[C@@H](NC(C)=O)CCc1cc(OC)c(OC)c(OC)c13
stdout: 1500 nM

stdin: Fill in: EC50 on MCF7, entry CC[C@@]1(O)C(=O)OCc2c1cc1n(c2=O)Cc2cc3ccccc3nc2-1 [CAMPTOTHECIN]
stdout: 72 nM

stdin: Answer briefly: EC50 recorded on MCF7 for COc1c2c(cc3c1-c1ccc(OC)c(=O)cc1[C@@H](NC(C)=O)CC3)OCO2
stdout: 61 nM

Source listed as ChEMBL document CHEMBL1142575.
